Reference source for all entries: patent US20210107981A1

Molecular target: T1, Human PD-1 (ACROBiosystems, Inc., Catalog No. PD1-H5221) (human, UniProt Q15116 25-167)
T1 construct: Bought recombinant protein; also called huPD1-His; PD-1-his; not shown: His tag of the bought protein (huPD1-His)
T1 sequence (Q15116 25-167 limits assumed): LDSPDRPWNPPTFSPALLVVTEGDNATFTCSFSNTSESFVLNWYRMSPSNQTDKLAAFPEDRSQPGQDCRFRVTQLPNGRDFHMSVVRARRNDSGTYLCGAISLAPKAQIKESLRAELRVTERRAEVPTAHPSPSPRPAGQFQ
Assay: SPR (Biacore), scFv captured on anti-FLAG, PD-1 as analyte
Give kon for every item shown.

[Q] Let me know recorded kon for h4B10-3 (VH3-15-Vκ4-1) scFv (scFv, Whole scFv chain with FlagHis tag) scFv: MEVQLVESGGGLVKPGGSLRLSCAASGFTFSTYGMSWVRQAPGKGLEWVATISGGGSNTYYSDSVKGRFTISRDDSKNTLYLQMNSLKTEDTAVYYCARQRDSAWFASWGQGTLVTVSSGGGGSGGGGSGGGGSDIVMTQSPDSLAVSLGERATINCRASENVDDYGVSFMNWYQQKPGQPPKLLIYPASNQGSGVPDRFSGSGSGTDFTLTISSLQAEDVAVYYCQQSKEVPWTFGGGTKLEIKGSGDYKDDDDKGSGHHHHHH , thanks.
[A] 513000 M⁻¹ s⁻¹

[Q] Could you please provide reported kon for h4B10-1 (VH3-15-Vκ3-11) scFv (scFv, Whole scFv chain with FlagHis tag) scFv: MEVQLVESGGGLVKPGGSLRLSCAASGFTFSTYGMSWVRQAPGKGLEWVATISGGGSNTYYSDSVKGRFTISRDDSKNTLYLQMNSLKTEDTAVYYCARQRDSAWFASWGQGTLVTVSSGGGGSGGGGSGGGGSEIVLTQSPATLSLSPGERATLSCRASENVDDYGVSFMNWYQQKPGQAPRLLIYPASNQGSGIPARFSGSGSGTDFTLTISSLEPEDFAVYYCQQSKEVPWTFGQGTKVEIKGSGDYKDDDDKGSGHHHHHH ? Thanks!
[A] 1.21e+06 M⁻¹ s⁻¹
